System: Paclitaxel-resistant human ovarian carcinoma cell A2780/TAX
Assay: SRB anti-proliferative assay, drug-resistant A2780/TAX
Assay type: cell-based
Conditions: paclitaxel-resistant A2780/TAX, SRB, read-out: Anti-proliferative IC50, A2780/TAX
Would you mind telling me the reported IC50 of each entry?
Kindly report the value followed by its unit.

IN: Let me know recorded IC50 for `COc1ccc(/C=C/C(=O)c2ccccc2-c2cccc(F)c2)cc1B(O)O` , thanks.
OUT: 124 nM

IN: Let me know recorded IC50 for `CN(C)c1ccc(/C=C/C(=O)c2ccccc2-c2cccc(F)c2)cc1` , thanks.
OUT: 55 nM

IN: Let me know recorded IC50 for `O=C(O)c1cccc(/C=C/C(=O)c2ccccc2-c2cccc(F)c2)c1` , thanks.
OUT: 120 nM

IN: Let me know recorded IC50 for `CN(C)c1ccc(/C=C/C(=O)c2ccccc2-c2ccc(F)cc2)cc1` , thanks.
OUT: 49 nM

IN: Let me know recorded IC50 for `CN(C)c1ccc(/C=C/C(=O)c2ccccc2-c2cccc(F)c2)cc1O` , thanks.
OUT: 43 nM

IN: Let me know recorded IC50 for COc1cccc2c1C(=O)c1c(O)c3c(c(O)c1C2=O)C[C@@](O)(C(=O)CO)C[C@@H]3O[C@H]1C[C@H](N)[C@H](O)[C@H](C)O1 [DOX, doxorubicin, reference compound] , thanks.
OUT: 1940 nM

IN: Let me know recorded IC50 for `COc1ccc(/C=C/C(=O)c2ccccc2-c2cccc(F)c2)cc1O` , thanks.
OUT: 190 nM

IN: Let me know recorded IC50 for `COc1ccc(/C=C/C(=O)c2ccccc2-c2ccc(OC)c(OC)c2OC)cc1B(O)O` , thanks.
OUT: 234 nM

IN: Let me know recorded IC50 for `COc1ccc(/C=C/C(=O)c2ccccc2-c2ccc(OC)c(OC)c2OC)cc1O` , thanks.
OUT: 289 nM

IN: Let me know recorded IC50 for `COc1ccc(/C=C/C(=O)c2ccccc2-c2cccc(F)c2)cc1S(=O)(=O)O` , thanks.
OUT: 53 nM

IN: Let me know recorded IC50 for CC[C@]1(O)C[C@H]2CN(CCc3c([nH]c4ccccc34)[C@@](C(=O)OC)(c3cc4c(cc3OC)N(C=O)[C@H]3[C@@](O)(C(=O)OC)[C@H](OC(C)=O)[C@]5(CC)C=CCN6CC[C@]43[C@@H]65)C2)C1 [VCT, vincristine, reference compound] , thanks.
OUT: 927 nM

IN: Let me know recorded IC50 for `O=C(/C=C/c1ccc(N(c2ccccc2)c2ccccc2)cc1)c1ccccc1-c1cccc(F)c1` , thanks.
OUT: 158 nM

IN: Let me know recorded IC50 for `Nc1cccc(/C=C/C(=O)c2ccccc2-c2cccc(F)c2)c1` , thanks.
OUT: 143 nM

IN: Let me know recorded IC50 for `O=C(/C=C/c1ccc(N2CCCC2)cc1)c1ccccc1-c1cccc(F)c1` , thanks.
OUT: 149 nM

IN: Let me know recorded IC50 for `COc1ccc(/C=C/C(=O)c2ccccc2-c2ccc(F)cc2)cc1S(=O)(=O)O` , thanks.
OUT: 61 nM
